Tested on: CAKI-1 renal
experiment: NCI-60 one-dose screen, 48 h (100 = growth as untreated, 0 = no growth, -100 = all killed)
measurement_parameters: 10 µM unless noted
Compounds without any hit were thinned out: in the full panel of roughly 83,000, 20% have a hit.
Recorded growth values for a group of compounds are listed next.
# output: bare number, implied unit %

Find the measured growth: item `Cc1c(-c2ccc(O)cc2)n(Cc2ccc(OCCN3CCCCCC3)cc2)c2ccc(O)cc12` , target or system CAKI-1 renal.
50.6

Same lookup for `COc1cc(OCc2cccc(Br)c2C)cc(OC)c1C=O` , please.
24.2

Same lookup for `CCCn1cc2c(=O)nc3sc(Cc4ccccc4)c(C)n3c2n1` , please.
87.7

Same lookup for CC(=O)N1N=C(c2ccc(C(F)(F)F)c(F)c2)CC1c1[nH]c(C)c(C(=O)NCC(F)(F)F)c1C (configuration not stated) , please.
58.7

Same lookup for `COc1ccc(/C=N\Nc2nc(SCCC(C)C)nc(-c3ccc(OC)cc3)c2C#N)cc1` , please.
17

Same lookup for CCN1C(=S)N(c2ccccc2)C2C1NN=c1s/c(=C3\C(=O)N(C(C)C)c4ccccc43)c(=O)n12 (configuration not stated) , please.
76.2

Same lookup for `CC(C)=CCC[C@](C)(O)[C@H]1CC[C@]2(C)[C@@H]1CC[C@@H]1[C@@]3(C)C/C(=C/c4ccco4)C(=O)C(C)(C)[C@@H]3CC[C@]12C` , please.
90.7

Same lookup for `CC(C)(C)CC(C)(C)NC(=O)Nc1ncccc1OCc1ccccc1` , please.
80.2

###

Test system: SK-MEL-5 melanoma
experiment: NCI-60 one-dose screen, 48 h (100 = growth as untreated, 0 = no growth, -100 = all killed)
measurement_parameters: 10 µM unless noted
About 83,000 compounds went through this panel and 20% of them were active in at least one assay; those are over-represented in the sample as a whole.
Recorded growth values for a group of compounds are listed next.
# output: bare number, implied unit %

Below are worked cases with known answers.
Need growth of N#CC1=C(N)Oc2c(ccc3ccccc23)C1c1ccccc1 (stereo not given) , thanks.
4.54

Same lookup for `C=C1C(=O)O[C@H]2[C@H]1CC/C(COC(=O)C(=O)c1cn(C)c3ccc(Cl)cc13)=C\CC[C@@]1(C)O[C@@H]21` , please.
-100

Further cases:
Need growth of `CCOC(=O)C/C(=N\Nc1cc(=O)[nH]c2ccc(Br)cc12)C(=O)OCC` , thanks.
95.1

Same lookup for `O=C(Nc1ccc(Oc2cccc(Cl)c2)c(Cl)c1)c1cnccn1` , please.
25.8

Same lookup for `CC(C)c1ccc(-n2c(=S)[nH]c3sc4cc(O)ccc4c3c2=O)cc1` , please.
98.6

###

Recorded growth values for a group of molecules are listed next.
Test system: RPMI-8226 leukemia
experiment: NCI-60 one-dose screen, 48 h (100 = growth as untreated, 0 = no growth, -100 = all killed)
measurement_parameters: 10 µM unless noted
The panel holds about 83,000 compounds, 20% with a hit somewhere; the sample as a whole holds those more often.
# output: bare number, implied unit %

Need growth of `COc1ccc2c(c1)c(-c1nc(-c3c[nH]c4ccncc34)cs1)cn2C` , thanks.
-36.7

Same lookup for `Nc1nc2ccccc2c2c(=O)c3cccc(Cl)c3sc12` , please.
96.1

Same lookup for `O=C(/C=C/c1cccc(Cl)c1)c1cccc(OCCCOc2cccc(C(=O)/C=C/c3cccc(Cl)c3)c2)c1` , please.
-8.65

Same lookup for `Cn1c(=O)c2nc(/C=C/c3ccccc3)c(=O)[nH]c2n(C)c1=S` , please.
110

Same lookup for `CC1=C2[C@@H](CC1)[C@]1(C)O[C@@](C(C)C)(C[C@H]1OC(=O)[C@H](C)O)[C@H]2OC(=O)/C=C/c1ccccc1` , please.
65.6

Further cases:
Need growth of `N#Cc1nc(-c2ccccc2)oc1S(=O)(=O)N1CCN(c2ccccc2)CC1` , thanks.
63.4

Same lookup for `Cc1ccc(/C=C2\COc3ccc(O)cc3C2=O)cc1` , please.
-1.31

Same lookup for `COc1ccc(OC)c(-c2nc(SCC(=O)c3ccc(C#N)cc3)[nH]c(=O)c2C#N)c1` , please.
114

Same lookup for `CC(C)(Sc1cc(C(C)(C)C)c(OC(=O)CCCC(=O)O)c(C(C)(C)C)c1)Sc1cc(C(C)(C)C)c(OC(=O)CCCC(=O)O)c(C(C)(C)C)c1` , please.
21.9

###

System: NCI/ADR-RES ovarian
experiment: NCI-60 one-dose screen, 48 h (100 = growth as untreated, 0 = no growth, -100 = all killed)
measurement_parameters: 10 µM unless noted
The panel holds about 83,000 compounds, 20% with a hit somewhere; the sample as a whole holds those more often.
Recorded growth values for a group of compounds are listed next.
# output: bare number, implied unit %

Find the measured growth: item `COC12C=C/C(=C(/C(=O)OCc3ccncc3)C(=O)CCCCCCCCC3(OC)C=C/C(=C(/C(=O)OCc4ccncc4)C(=O)CCCCCCCC1)O3)O2` , target or system NCI/ADR-RES ovarian.
5.85

Same lookup for `O=C1c2c(c3c4ccccc4[nH]c3c3ccc4ccccc4c23)C(=O)N1CCN1CCNCC1` , please.
25.9

Same lookup for `CCN1CCN(C(=O)[C@]23CCC(C)(C)C[C@@H]2C2=CC[C@@H]4[C@@]5(C)CCC(=O)C(C)(C)[C@@H]5CC[C@@]4(C)[C@]2(C)CC3)CC1` , please.
39.7

Same lookup for `COC1=CC(c2ccc[nH]2)=N/C1=C\c1[nH]c(C)c(CC(=O)NCc2ccccc2)c1C` , please.
-40.7

Same lookup for `NC(=O)CSc1oc(-c2ccccc2)nc1S(=O)(=O)c1ccc(Br)cc1` , please.
86.4

Same lookup for N#CSCC1CC(O)(c2ccccc2)CC(c2ccc(F)cc2)O1 (stereo not drawn) , please.
-3.67

Same lookup for O=CN1N=C(c2cccc(Nc3ccnc4cc(Cl)ccc34)c2)CC1c1ccccc1 (stereo not drawn) , please.
3.37

# ---- query compound ----
Find the measured growth: item CCCCCN1C(=O)/C(=c2\sc3n(c2=O)C2C(NN=3)N(CC)C(=O)N2CC)c2ccccc21 (stereo not drawn) , target or system NCI/ADR-RES ovarian.
-11.1

###

Test system: SNB-75 CNS
experiment: NCI-60 one-dose screen, 48 h
measurement_parameters: 10 µM unless noted
The panel holds about 83,000 compounds, 20% with a hit somewhere; the sample as a whole holds those more often. Calls of active or inactive are those of the source. Rule for the calls: active = growth percent below 10; inactive = the rest.
Pick one and only one: active, inactive

Each molecule tested received a call. Report the one for `C=CCc1c(O)c(C(=O)/C=C/c2ccccc2)c(OC)c2ccoc12` .
inactive

Further cases:
Each molecule tested received a call. Report the one for `O=C1c2ccc3c4c5ccc(c24)C(=O)N1CCCOCCCCOCCCNCc1ccc(cc1)CNCCCOCCCCOCCCN(C3=O)C5=O` .
inactive

Same lookup for CC1OC(n2c3ccccc3c3c4c(c5c6ccccc6[nH]c5c32)C(=O)N(CCN2CCCC2)C4=O)CC(O)C1O (stereo not given) , please.
inactive

Same lookup for `Cc1csc(Nc2nc(-c3ccccn3)nc(C(Cl)(Cl)Cl)n2)n1` , please.
inactive

Same lookup for `CN1CCN(c2cc(Nc3cc(C4CC4)[nH]n3)nc(Nc3ccc(CC(=O)NCc4cccc(F)c4)cc3)n2)CC1` , please.
active

Same lookup for `CCOCCNC1=C(Cl)C(=O)c2ccccc2C1=O` , please.
inactive

Same lookup for `O=C(Nc1cccc(Cl)c1)Nc1cccc(Cn2c(=O)[nH]c3ccc(Oc4ncccn4)cc3c2=O)c1` , please.
inactive

Same lookup for `O=C(CSc1nc2ccc([N+](=O)[O-])cc2[nH]1)Nc1ccc([N+](=O)[O-])cc1` , please.
inactive

Same lookup for `Cc1c[n+](Cc2ccc3ccccc3c2)cn1Cc1ccc2ccccc2c1` , please.
active

Same lookup for `CC(=O)c1c(C)nc2ccccc2c1/C=C/c1ccc(F)cc1` , please.
inactive

Same lookup for `O=C(CSc1nc2sc3c(c2c(=O)n1-c1ccccc1)CCCCC3)N/N=C/c1cccc([N+](=O)[O-])c1` , please.
active

Same lookup for `COc1ccc2c(c1)CC[C@H](O)/C2=C/c1cc(OC)c(OC)c(OC)c1` , please.
inactive

Same lookup for `N#Cc1c(-c2ccccc2)cc(-c2ccc(Nc3nc(Nc4ccc(Cl)cc4)nc(Nc4ccc(Cl)cc4)n3)cc2)nc1N` , please.
inactive

Same lookup for `COc1cc(/C=C2/C=C(c3ccccc3)N(CCc3ccc(S(N)(=O)=O)cc3)C2=O)cc(OC)c1OC` , please.
inactive

Same lookup for `O=C(/C=C/c1cccs1)Nc1ncc(Cc2ccccc2F)s1` , please.
active

Same lookup for `COc1ccc(C(=O)Nc2cccc(-c3cc(=O)c4c(OC)c(OC)c(OC)cc4o3)c2)cc1` , please.
inactive

Same lookup for CCCCCCCCCCC(CN(CC)CC)C(O)c1ccccc1 (stereo not given) , please.
inactive

Same lookup for `O=c1c2cccc3c(N4CCCC4)ccc(c32)c2nc3ccccc3n12` , please.
inactive

Same lookup for `O=S(=O)(NCCNc1nccc(-c2c(-c3ccc(F)c(O)c3)nc3occn23)n1)c1ccc(Cl)cc1` , please.
inactive

Same lookup for `Cc1[nH]c(C(=O)Nc2ccc(C(=O)N3CCN(c4cc5c(cc4F)c(=O)c(C(=O)O)cn5C4CC4)CC3)cc2OC(C)C)c(Cl)c1Cl` , please.
inactive

Same lookup for `CC(C)Cn1cnc2c(=O)[nH]c(N)nc21` , please.
inactive

Same lookup for `Nc1ncnc2c1c(-c1cccc(Cl)c1)nn2CC(=O)N1CCOCC1` , please.
inactive

Same lookup for `Cc1ccc(Nn2c(SCC(=O)Nc3nc(-c4ccccc4)cs3)nc(C)c2C)cc1` , please.
inactive

Same lookup for `Nc1[nH]n2cc(-c3ccccc3)nc2c1N=Nc1ccc(S(N)(=O)=O)cc1` , please.
active

Same lookup for `Cc1ccccc1/C=C/C(=O)c1cccc(OCCCCOc2cccc(C(=O)/C=C/c3ccccc3C)c2)c1` , please.
inactive

Same lookup for `O=C(CSC(=S)n1cnnc1)NC(=O)c1ccccc1` , please.
inactive

Same lookup for `COc1ccc(\C=N/N=C(N)/C(N)=N\N=C/c2ccc(OC)cc2)cc1` , please.
inactive

Same lookup for `COc1ccc(/C=N/NC(=O)c2ccc(-n3cc(-c4ccccc4)nn3)cc2)cc1OC` , please.
inactive
